Recorded melting point for the following compounds
observation_type: melting point

INSERT INTO measurements (compound, observed_measurement) VALUES
  ('CCCCc1nc(-c2cccc(C)c2)c(-c2ccnc(NC(=O)Cc3ccccc3)c2)s1', '92 to 93 °C'),
  ('CSCCc1nc(-c2cccc(C)c2)c(-c2ccnc(N)c2)s1', '98 to 99 °C'),
  ('Cc1cc(C)cc(-c2nc(-c3ccc([S+](C)[O-])cc3)sc2-c2ccnc(C)c2)c1 (stereo not drawn)', '151 to 153 °C'),
  ('CCCc1nc(-c2cccc(Cl)c2)c(-c2ccnc(NC(C)=O)c2)s1', '144 to 145 °C'),
  ('Cc1cccc(-c2nc(N(C)C(=O)c3cccnc3)sc2-c2ccnc(NC3CCCCC3)c2)c1 [H 42-8]', '147 to 148 °C'),
  ('CCNC(=O)Nc1nc(-c2cc(C)cc(C)c2)c(-c2ccncc2)s1', '202 to 203 °C'),
  ('Cc1cc(C)cc(-c2nc(NC(=O)c3cccnc3)sc2-c2ccnc(C)c2)c1', '203 to 206 °C'),
  ('CNc1nc(-c2cccc(C)c2)c(-c2ccnc(NC3CCCC3)c2)s1', '170 to 172 °C'),
  ('Nc1nc(-c2ccccc2)c(-c2ccncc2)s1', '248 to 250 °C');

====

Recorded melting point for the following compounds
observation_type: melting point

INSERT INTO assay_data (chemical_string, observed_measurement) VALUES
  ('Cc1cccc(-c2nc(-c3ccc(F)cc3F)sc2-c2ccnc(C)c2)c1', '90 to 91 °C'),
  ('CCc1nc(-c2ccc(SC)cc2)c(-c2ccnc(N)c2)s1', '119 to 120 °C'),
  ('CCc1nc(-c2cccc(C(C)C)c2)c(-c2ccnc(N)c2)s1', '80 to 81 °C'),
  ('CC(=O)Nc1nc(-c2cc(C)cc(C)c2)c(-c2ccnc(C)c2)s1', '236 to 237 °C'),
  ('Cc1cccc(-c2ncsc2-c2ccnc(NC(=O)Cc3ccccc3)c2)c1', '135 to 136 °C'),
  ('Cc1cccc(-c2nc(-c3ccc(F)cc3)sc2-c2ccnc(NCCc3ccccc3)c2)c1', '97 to 98 °C'),
  ('CCCCCC(=O)Nc1cc(-c2sc(CC)nc2-c2cccc(C)c2)ccn1', '84 to 85 °C'),
  ('CCc1cccc(-c2nc(CC)sc2-c2ccnc(N)c2)c1', '128 to 129 °C'),
  ('COc1ccc(-c2nc(NC(C)=O)sc2-c2ccnc(N)c2)cc1', '247 to 250 °C'),
  ('CCC(=O)Nc1cc(-c2sc(CC)nc2-c2cccs2)ccn1', '187 to 188 °C'),
  ('CCc1nc(-c2ccccc2)c(-c2ccnc(NC(=O)OC(C)(C)C)c2)s1', '154 to 155 °C'),
  ('CCC(=O)Nc1cc(-c2sc(C(C)=O)nc2-c2cccc(C)c2)ccn1', '121 to 123 °C'),
  ('CCc1nc(-c2cccc(C)c2)c(-c2ccnc(NC(=O)c3ccsc3)c2)s1', '99 to 101 °C'),
  ('Cc1cccc(-c2nc(NC(=O)c3ccc(Cl)nc3)sc2-c2ccnc(NC3CCCC3)c2)c1', '211 to 212 °C'),
  ('CC(=O)Nc1cc(-c2sc(C)nc2-c2cccc(C)c2)ccn1', '162 to 163 °C'),
  ('CSc1ccc(-c2nc(-c3cccc(C)c3)c(-c3ccnc(NC(=O)c4ccccc4)c3)s2)cc1', '180 to 182 °C'),
  ('Cc1cc(C)cc(-c2nc(N)sc2-c2ccnc(C)c2)c1', '219 to 220 °C'),
  ('CCc1nc(-c2cccc(F)c2)c(-c2ccnc(NC(C)=O)c2)s1', '141 to 142 °C'),
  ('CCC(=O)Nc1cc(-c2sc(C(C)=O)nc2-c2cccc(Cl)c2)ccn1', '115 to 117 °C');

====

# study_target: human p38 MAP kinase (Homo sapiens)
# Construct: made in house; host or cells: Sf-21 insect cells, baculovirus (BAC-HP38 co-infected with BAC-caMKK3)
# Sequence (Q16539 whole entry): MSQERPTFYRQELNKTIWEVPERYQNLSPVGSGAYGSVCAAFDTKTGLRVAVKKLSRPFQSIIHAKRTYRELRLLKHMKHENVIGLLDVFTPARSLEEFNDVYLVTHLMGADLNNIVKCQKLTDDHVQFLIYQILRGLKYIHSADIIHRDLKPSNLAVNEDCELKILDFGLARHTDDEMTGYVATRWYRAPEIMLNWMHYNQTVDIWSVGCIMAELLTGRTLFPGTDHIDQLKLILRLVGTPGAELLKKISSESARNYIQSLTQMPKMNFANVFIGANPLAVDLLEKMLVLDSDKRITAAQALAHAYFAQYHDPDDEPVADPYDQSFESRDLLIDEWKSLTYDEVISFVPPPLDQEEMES
# experiment: Measurement of the enzyme inhibitory activity of active form p38 MAP kinase, 32P uptake into Myelin Basic Protein (Reference Example C 1)
# Format: biochemical
# test_context: Myelin Basic Protein substrate, 30° C., 60 minutes, read-out: IC50 (concentration necessary for inhibiting uptake of 32P into an acid insoluble fraction by 50%)
pIC50: −log10 of the molar value.
observation_type: pIC50

INSERT INTO results (chemical_string, study_target, observed_measurement) VALUES
  ('CNc1nc(-c2ccc3c(c2)CCC3)c(-c2cccnc2)s1', 'human p38 MAP kinase (Homo sapiens)', 6.20);

====

observation_type: melting point

INSERT INTO results (molecule, observation_type, observed_measurement) VALUES
  ('Cc1cc(C)cc(-c2nc(-c3ccc(S(C)(=O)=O)cc3)sc2-c2cc(C)nc(C)c2)c1', 'melting point', '217 to 220 °C'),
  ('CCc1nc(-c2ccc(F)cc2)c(-c2ccnc(N)c2)s1', 'melting point', '140 to 141 °C'),
  ('CC(=O)Nc1cc(-c2sc(C(C)OC(=O)c3ccccc3)nc2-c2cccc(C)c2)ccn1 (stereo not shown)', 'melting point', '110 to 113 °C'),
  ('Cc1cccc(C2=NCSC2(c2ccnc(C)c2)N2CCOC2=O)c1 (stereo not shown)', 'melting point', '80 to 82 °C'),
  ('CCC(=O)Nc1cc(-c2sc(CC)nc2-c2ccccc2)ccn1', 'melting point', '139 to 140 °C'),
  ('Cc1nc(-c2cccc(Cl)c2)c(-c2ccnc(NC(=O)Cc3ccccc3)c2)s1', 'melting point', '99 to 101 °C'),
  ('Cc1cccc(-c2nc(-c3ccc(S(C)(=O)=O)cc3)sc2-c2ccnc(N(C)CCc3ccccc3)c2)c1', 'melting point', '116 to 117 °C'),
  ('CCC(=O)Nc1cc(-c2sc(C(C)O)nc2-c2cccc(Cl)c2)ccn1 (stereo not shown)', 'melting point', '131 to 132 °C'),
  ('CC(=O)Nc1cc(-c2sc(-c3ccc(S(C)(=O)=O)cc3)nc2-c2cccc(C)c2)ccn1', 'melting point', '222 to 223 °C'),
  ('CC(=O)Nc1cc(-c2sc(C(C)=O)nc2-c2cccc(Cl)c2)ccn1', 'melting point', '180 to 183 °C'),
  ('Cc1cccc(-c2nc(NC(=O)c3ccc(C)nc3)sc2-c2ccnc(NC3CCCCC3)c2)c1', 'melting point', '242 to 243 °C'),
  ('CCC(=O)Nc1cc(-c2sc(CC)nc2-c2ccc(Cl)cc2)ccn1', 'melting point', '152 to 153 °C'),
  ('CCC(=O)Nc1cc(-c2sc(CC)nc2-c2cccc(Cl)c2)ccn1', 'melting point', '132 to 133 °C'),
  ('CCc1nc(-c2ccccc2)c(-c2ccnc(NC(=O)Cc3ccccc3)c2)s1', 'melting point', '162 to 163 °C'),
  ('Cc1cc(C)cc(-c2nc(NC(=O)c3cnccn3)sc2-c2ccncc2)c1', 'melting point', '269 to 270 °C'),
  ('Cc1cc(C)cc(-c2nc(-c3ccc([S+](C)[O-])cc3)sc2-c2cc(C)nc(C)c2)c1 (stereo not shown)', 'melting point', '151 to 154 °C'),
  ('CCc1nc(-c2cccc(C)c2)c(-c2ccnc(NC(=O)c3ccc(C)cc3)c2)s1', 'melting point', '105 to 106 °C'),
  ('CCCCCC(=O)Nc1cc(-c2sc(CC)nc2-c2cccc(Cl)c2)ccn1', 'melting point', '114 to 115 °C'),
  ('CNc1nc(-c2ccc(OC)cc2)c(-c2ccncc2)s1', 'melting point', '177 to 178 °C'),
  ('CCC(=O)Nc1cc(-c2sc(CC)nc2-c2cccc(F)c2)ccn1', 'melting point', '121 to 122 °C'),
  ('Cc1cccc(-c2nc(CC(F)(F)F)sc2-c2ccnc(N)c2)c1', 'melting point', '131 to 132 °C'),
  ('Cc1cccc(-c2nc(N(C)C(=O)c3cccnc3)sc2-c2ccnc(NC3CCCC3)c2)c1 [H 42-9]', 'melting point', '148 to 149 °C'),
  ('CC(=O)Nc1cc(-c2scnc2-c2cccc(C)c2)ccn1', 'melting point', '149 to 150 °C'),
  ('CC(C)(C)c1ccc(-c2nc(NC(=O)c3ccccc3)sc2-c2ccncc2)cc1', 'melting point', '292 to 294 °C'),
  ('Cc1cccc(-c2nc(NC(=O)c3ccc(Cl)nc3)sc2-c2ccnc(C)c2)c1', 'melting point', '228 to 230 °C'),
  ('CSc1ccc(-c2nc(-c3cccc(C)c3)c(-c3ccnc(NC(C)=O)c3)s2)cc1', 'melting point', '181 to 182 °C'),
  ('CCc1nc(-c2ccccc2)c(-c2ccnc(N)c2)s1', 'melting point', '158 to 159 °C'),
  ('Cc1cc(C)cc(-c2nc(NC(=O)c3cccnc3)sc2-c2ccncc2)c1', 'melting point', '267 to 270 °C'),
  ('COc1ccc(C(=O)Nc2nc(-c3cccc(C)c3)c(-c3ccnc(C)c3)s2)cn1', 'melting point', '224 to 226 °C'),
  ('Cc1cccc(-c2nc(-c3ccc(Cl)cc3)sc2-c2ccnc(C)c2)c1', 'melting point', '104 to 105 °C'),
  ('Cc1cccc(-c2nc(C)sc2-c2ccnc(NC(=O)Cc3ccccc3)c2)c1', 'melting point', '114 to 115 °C'),
  ('CCc1nc(-c2ccc(F)cc2)c(-c2ccnc(NC(C)=O)c2)s1', 'melting point', '190 to 191 °C'),
  ('CCc1nc(-c2cccc(C)c2)c(-c2ccnc(N3CCOCC3)c2)s1', 'melting point', '69 to 71 °C'),
  ('Cc1cccc(-c2nc(-c3ccc(S(C)(=O)=O)cc3)sc2-c2ccnc(N(C)C3CCCCC3)c2)c1', 'melting point', '173 to 174 °C'),
  ('CC(=O)Nc1cc(-c2sc(C3CCNCC3)nc2-c2cccc(Cl)c2)ccn1.Cl.Cl', 'melting point', '193 to 195 °C'),
  ('COc1ncccc1C(=O)Nc1nc(-c2cccc(C)c2)c(-c2ccnc(C)c2)s1', 'melting point', '169 to 170 °C'),
  ('CCC(=O)Nc1cc(-c2sc(C(C)O)nc2-c2cccc(C)c2)ccn1 (stereo not shown)', 'melting point', '115 to 116 °C');
